Target: human CD3 (human, UniProt P07766 23-207; P04234 22-171; P09693 23-182)
Sequence (P07766 23-207, chain 1 of 3): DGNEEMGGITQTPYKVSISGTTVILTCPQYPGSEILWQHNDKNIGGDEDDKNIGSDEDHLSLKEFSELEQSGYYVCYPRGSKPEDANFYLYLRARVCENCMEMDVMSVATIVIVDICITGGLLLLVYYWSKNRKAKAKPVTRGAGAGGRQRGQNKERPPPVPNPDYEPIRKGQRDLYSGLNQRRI
Sequence (P04234 22-171, chain 2 of 3): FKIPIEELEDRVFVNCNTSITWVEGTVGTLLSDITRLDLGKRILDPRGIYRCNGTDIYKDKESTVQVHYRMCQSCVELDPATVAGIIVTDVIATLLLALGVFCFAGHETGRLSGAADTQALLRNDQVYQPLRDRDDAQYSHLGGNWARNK
Sequence (P09693 23-182, chain 3 of 3): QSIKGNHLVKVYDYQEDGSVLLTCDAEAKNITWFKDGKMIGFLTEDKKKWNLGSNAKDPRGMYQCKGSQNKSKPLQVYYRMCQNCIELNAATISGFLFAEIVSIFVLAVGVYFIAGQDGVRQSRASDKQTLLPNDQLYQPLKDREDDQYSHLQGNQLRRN
Assay: cell-based or functional assay
Listed here are binders together with their documented CD8 EC50 (nM); CD69/CD25 on human T cells, plate-coated antibody.
Kindly provide the numeric value in nM only, without the unit symbol.

BINDER | UOM | RECORDED_RESULT
mAb 43 (antibody, V domains shown) VH: QAQLVQSGSELKKPGASVKVSCKASGYTFTKHSMNWVRQAPGQGLEWMGWINTNTGNPMYAQGFTGRFVFSLDTSVTTAYLQISSLKAEDTAVYYCAREGDYDFWSGFFNFDYWGQGTLVTVSS VL: DIQMTQSPSSLSASVGDRVTITCRASQGIRNDLGWYQQKPGKAPKRLIYAASSLQSGVPSRFSGSGSGAEFTLTISSLQPEDFATYYCLQHNSYPRTFGQGTKVEIK | nM | 25.6

// next entry
[Q] Dear colleague, please send me the reported CD8 EC50 (nM); CD69/CD25 on human T cells, plate-coated antibody for mAb 166 (antibody, V domains shown) VH: EVQLVESGGGLVKTGGSLRLSCVASGFSFKKAWMNWVRQAPGRGLEWVGRIKRNTDGGTTDYAAPVKGRFTLSRDDSKNMLYLQMNSLKTEDTAVYYCTTLDSSSLYVGYYYMDVWGKGTTVTVSS VL: DIQMTQSPSSVSASVGDRVTITCRASQDINNWLAWYQQKPGKAPKLLIYTASSLQSGVPSRFSGSGSGTDFTLTISSLQPEDFATYFCQQAHSLPITFGQGTRLEIT when you can.
[A] 10.6
